Each entry below lists one item and its recorded IC50 value.
# Assayed Target: cAMP and cAMP-inhibited cGMP 3',5'-cyclic phosphodiesterase 10A (Rattus norvegicus)
# Sequence (Q9QYJ6 whole entry): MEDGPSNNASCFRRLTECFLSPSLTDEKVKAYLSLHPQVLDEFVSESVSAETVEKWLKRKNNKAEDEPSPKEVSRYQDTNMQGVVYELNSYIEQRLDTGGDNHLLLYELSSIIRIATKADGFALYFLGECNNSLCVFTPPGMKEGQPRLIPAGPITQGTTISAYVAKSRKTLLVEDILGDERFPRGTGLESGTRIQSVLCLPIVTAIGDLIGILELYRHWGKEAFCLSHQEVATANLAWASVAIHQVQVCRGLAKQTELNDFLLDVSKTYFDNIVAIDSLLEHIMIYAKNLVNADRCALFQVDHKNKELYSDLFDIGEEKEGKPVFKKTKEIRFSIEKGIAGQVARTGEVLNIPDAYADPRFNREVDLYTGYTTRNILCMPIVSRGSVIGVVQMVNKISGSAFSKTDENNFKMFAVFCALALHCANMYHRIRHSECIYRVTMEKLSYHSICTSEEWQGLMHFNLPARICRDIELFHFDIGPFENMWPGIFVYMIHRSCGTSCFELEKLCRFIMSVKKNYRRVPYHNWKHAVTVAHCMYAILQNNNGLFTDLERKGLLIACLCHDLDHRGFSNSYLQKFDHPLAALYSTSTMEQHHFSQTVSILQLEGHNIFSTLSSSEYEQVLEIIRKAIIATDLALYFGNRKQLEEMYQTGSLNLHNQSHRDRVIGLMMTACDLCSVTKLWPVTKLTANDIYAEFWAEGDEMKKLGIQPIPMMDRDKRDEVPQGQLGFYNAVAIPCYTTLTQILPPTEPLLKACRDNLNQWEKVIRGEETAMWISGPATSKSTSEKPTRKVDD
# Run Description: Inhibition of rat recombinant GST-tagged PDE10A using [3H]-cAMP as substrate by scintillation proximity assay
Report as a plain number; the unit nM is understood.

Observe how each entry below is paired with its result.
Cn1cc(-c2cccc(Oc3nccc(-c4cn[nH]c4)n3)c2)c2nc3ccccc3cc21; 122
Cn1cc(-c2ccc(Oc3nccnc3-c3ccncc3)cc2)c2ncc(Cl)cc21; 141
Cn1cc(-c2cccc(Oc3nccc(N4CCOCC4)n3)c2)c2nc3ccccc3cc21; 167

Now turn to the next compound.
Using known records, supply IC50 for Cn1cc(-c2cccc(Oc3nccnc3-c3cncnc3)c2)c2nc3ccccc3cc21
1450
